Attribution: ChEMBL document CHEMBL1201862

- System: NCI-H23
- Test Details: NCI tumour cell line growth inhibition, 48 h
Activity calls are given as the source filed them. No stated cut-off is given here; in the data, active = GI50 up to about 1.1 µM and inactive = higher.
Catalogue of GI50 readings, one per entry.

Recorded GI50, per entry:
- Compound: "COc1ccc(NC=O)c(C(=O)CCNC(C)=O)c1"
  Experimental Target: "NCI-H23"
  Readout: "GI50"
  Result: "> 100 µM (inactive)"
- Compound: "CC1=CC(c2ccccc2)OP1(=O)c1ccccc1 (stereo unspecified)"
  Experimental Target: "NCI-H23"
  Readout: "GI50"
  Result: "> 100 µM (inactive)"
- Compound: "CNC1(C(=O)O)CC1"
  Experimental Target: "NCI-H23"
  Readout: "GI50"
  Result: "> 100 µM (inactive)"

Prompt: Check NCI-H23 data and give GI50 for `CCN(CC)/N=N/c1c(C(N)=O)n[nH]c1C` .
Completion: 36.9 µM (inactive)

Prompt: Check NCI-H23 data and give GI50 for `CS(=O)(=O)O.[Ag]` .
Completion: 23.2 µM (inactive)

Prompt: Check NCI-H23 data and give GI50 for `O=C(c1ccccc1)[C@H]1Nc2ccc(Cl)cc2[C@H]2CCC[C@@H]12` .
Completion: 23.9 µM (inactive)

Prompt: Check NCI-H23 data and give GI50 for CC1CC(=O)N(N(C)C)C(C#N)(C#N)C1(C#N)C#N (stereo unspecified) .
Completion: 20 µM (inactive)

Prompt: Check NCI-H23 data and give GI50 for `O=C1/C(=C\c2ccc(O)cc2)CCC/C1=C/c1ccc(Cl)c(Cl)c1` .
Completion: 3.13 µM (inactive)

Prompt: Check NCI-H23 data and give GI50 for `Nc1nc(O)c(Br)c(-c2cccc([N+](=O)[O-])c2)n1` .
Completion: 40.9 µM (inactive)

Prompt: Check NCI-H23 data and give GI50 for `O=C1c2c(ccc3c2CCCC3)CC12Cc1ccc3c(c1C2=O)CCCC3` .
Completion: > 100 µM (inactive)

Prompt: Check NCI-H23 data and give GI50 for CCC(C(=O)O)c1ccc(OC)cc1 (stereo unspecified) .
Completion: > 100 µM (inactive)

Prompt: Check NCI-H23 data and give GI50 for `OC[C@H]1O[C@@H](n2cnc3cncnc32)[C@H](O)[C@@H]1O` .
Completion: 1.75 µM (inactive)

Prompt: Check NCI-H23 data and give GI50 for CCc1cccc(C(C)CC)c1/N=C(/NC(=O)c1ccccc1C(=O)N/C(=N/c1c(CC)cccc1C(C)CC)SC)SC (stereo unspecified) .
Completion: 31.9 µM (inactive)

Prompt: Check NCI-H23 data and give GI50 for `Cc1nc2c(n1CCN(C)C)C(=O)c1ccccc1C2=O` .
Completion: 12.1 µM (inactive)

Prompt: Check NCI-H23 data and give GI50 for `COc1cc(/C=C/c2nc(N)nnc2C)cc(OC)c1OC` .
Completion: 13.9 µM (inactive)

Prompt: Check NCI-H23 data and give GI50 for `Cc1ccc(NC(=O)COC(=O)c2cccc3c(=O)c4ccccc4[nH]c23)cc1` .
Completion: 17.8 µM (inactive)

Prompt: Check NCI-H23 data and give GI50 for O=C1/C(=C/c2ccc(Cl)cc2)CCC1CN1CCOCC1 (stereo unspecified) .
Completion: 9.14 µM (inactive)

Prompt: Check NCI-H23 data and give GI50 for `Cc1cc2c3c([nH]c2c2ccnc(C)c12)CCCC3` .
Completion: 2.86 µM (inactive)

Prompt: Check NCI-H23 data and give GI50 for `O/N=C1\C=Cc2nn(-c3ccccc3)nc2\C1=N/O` .
Completion: 3.77 µM (inactive)

Prompt: Check NCI-H23 data and give GI50 for C1C[N+]23CCC[N+]2(C1)CCC3 (stereo unspecified) .
Completion: > 100 µM (inactive)

Prompt: Check NCI-H23 data and give GI50 for `COc1cc2nc3n(c(=O)c2cc1OC)-c1ccc([N+](=O)[O-])cc1C3=O` .
Completion: 56.6 µM (inactive)

###

- Test system: SN12C
- Test Details: NCI tumour cell line growth inhibition, 48 h
Active and inactive are the calls of the source. No stated cut-off is given here; in the data, active = GI50 up to about 1.1 µM and inactive = higher.
Catalogue of GI50 readings, one per entry.

Recorded GI50, per entry:
- Compound: "CCOC(=O)N1CCc2cc(OC)c(OC)cc2/C1=C/c1ccc(OC)c(OC)c1"
  Experimental Target: "SN12C"
  Result: "35.6 µM (inactive)"
- Compound: "CN(C)/N=C(/c1nc2ccc([N+](=O)[O-])cc2nc1O)C(O)c1ccco1 (configuration not stated)"
  Experimental Target: "SN12C"
  Result: "> 100 µM (inactive)"
- Compound: "CC1CC(=O)N(N(C)C)C(C#N)(C#N)C1(C#N)C#N (configuration not stated)"
  Experimental Target: "SN12C"
  Result: "21 µM (inactive)"
- Compound: "CC(=O)OC1CCC2(C)C(CCC3C2CCC2(C)C(c4ccc(=O)oc4)C(OC(C)=O)CC32O)C1 (configuration not stated)"
  Experimental Target: "SN12C"
  Result: "0.0162 µM (active)"
- Compound: "Clc1ccc(C[P+](c2ccccc2)(c2ccccc2)c2ccccc2)c(Cl)c1"
  Experimental Target: "SN12C"
  Result: "2.7 µM (inactive)"
- Compound: "O=C(CC(=O)N1N=C(N(c2ccccc2)c2ccccc2)CC1c1ccccc1)Nc1cccc(Cl)c1 (configuration not stated)"
  Experimental Target: "SN12C"
  Result: "> 100 µM (inactive)"

Prompt: Check SN12C data and give GI50 for `CN(C)c1ccc(/N=N/c2ccccn2)cc1` .
Completion: 41.5 µM (inactive)

Prompt: Check SN12C data and give GI50 for `Cc1nc(-c2ccccc2)c(C)n2c1nc1ccccc12` .
Completion: 42.9 µM (inactive)

Prompt: Check SN12C data and give GI50 for `O=C1CCCC2=C1CC1=C(CCCC1=O)N2c1ccccc1` .
Completion: > 100 µM (inactive)

Prompt: Check SN12C data and give GI50 for `O=c1c2nn3c(=O)n(-c4ccccc4)c(=O)c3nn2c(=O)n1-c1ccccc1` .
Completion: > 100 µM (inactive)

Prompt: Check SN12C data and give GI50 for C=C1C(=O)O[C@H]2C1C[C@@H](OC(C)=O)/C(C)=C/CC[C@@]1(C)O[C@H]21 (some centres not stated) .
Completion: 14.3 µM (inactive)

Prompt: Check SN12C data and give GI50 for CC(C)C(C/C=C1\CC(CO)(COC(=O)C(C)(C)C)OC1=O)C(C)C (configuration not stated) .
Completion: 5.69 µM (inactive)

###

- System: HL-60
- Test Details: NCI tumour cell line growth inhibition, 48 h
The source made the active and inactive calls. No stated cut-off is given here; in the data, active = GI50 up to about 1.1 µM and inactive = higher.
# output must be one of YES = active, NO = inactive

As a guide, the following entries are already answered.
- Molecule: "COC(=O)CCC(C)[C@H]1CCC2C3C(C[C@H](OC(C)=O)[C@@]21C)[C@@]1(C)CCC2(C[C@H]1C[C@H]3OC(C)=O)OOC1(CCCCC1)OO2 (stereo partly specified)"
  Class Name: "NO"
- Molecule: "COC(=O)CCC(NC(=S)N/N=C(\\C)c1ccccn1)C(=O)OC (stereo unspecified)"
  Class Name: "NO"
- Molecule: "CCCCNC(=O)CCN(C(=O)O)S(=O)(=O)c1ccc(NC(=O)c2ccccc2)cc1"
  Class Name: "NO"
- Molecule: "CCN(CC)c1nc(N(C)C)c2cc(OC)ccc2n1"
  Class Name: "NO"
- Molecule: "CCOc1ccc(/C(C=O)=C(\\Cl)c2ccc(OC)c(OC)c2)cc1"
  Class Name: "NO"

Prompt: So what was the verdict on `Cn1cc/c(=N\N=c2/ccn(C)c3ccccc23)c2ccccc21` in this test?
Completion: NO

Prompt: So what was the verdict on O=C1Sc2sc(=S)sc2SC1c1ccccc1 (stereo unspecified) in this test?
Completion: NO

Prompt: So what was the verdict on `CCOC(=O)/C(C#N)=C/c1ccc2c(-c3c(OCC)ccc4cc(/C=C(\C#N)C(=O)OCC)ccc34)c(OCC)ccc2c1` in this test?
Completion: NO

Prompt: So what was the verdict on `O=C1c2c(c(-c3ccccc3)c(-c3ccccc3)c(-c3ccccc3)c2-c2ccccc2)C(=O)N1c1cccc(Br)c1` in this test?
Completion: NO

###

- Tested on: COLO 205
- Test Details: NCI tumour cell line growth inhibition, 48 h
Calls of active or inactive are those of the source. No stated cut-off is given here; in the data, active = GI50 up to about 1.1 µM and inactive = higher.
Readout: GI50

- Compound: "NS(=O)(=O)c1ccc(NC(=O)c2cccc3c(Nc4ccc(S(N)(=O)=O)cc4)c4ccccc4nc23)cc1"
  GI50: "54.5 µM (inactive)"
- Compound: "Cc1ccc(-n2cc(-c3ccc(Cl)cc3)c3c2N=CN2N=C(c4ccco4)NC32)cc1 (stereo not given)"
  GI50: "9.18 µM (inactive)"
- Compound: "CCOC(=O)c1nc2ccccc2nc1NCc1cc(OC)c(OC)c(OC)c1"
  GI50: "38.2 µM (inactive)"
- Compound: "O=C(CNc1ccccc1C(=O)O)Nn1cnc2ccc(S(=O)(=O)Nc3ccccc3C(=O)O)cc2c1=O"
  GI50: "> 100 µM (inactive)"
- Compound: "C/C1=C\\[C@H](C)C[C@H](C)OC(=O)[C@H](C)NC(=O)[C@@H](Cc2ccc(O)c(Br)c2)N(C)C(=O)[C@H](C)NC(=O)[C@@H](C)C1"
  GI50: "0.00728 µM (active)"

Prompt: Please report GI50 for the following compound: `CCC1=C(c2ccc(OC)cc2)CC[C@@]2(CCNC2=O)[C@@H]1C`
Completion: > 63.4 µM (inactive)
